assay: Tissue distribution of cephapirin activity after intravenous administration (agar well diffusion bioassay); format: in vivo, mice; conditions: mouse; SPLEEN; time 24; 200 mg/kg intravenous; mean ± S.E.M.
Property Measured: concentration at 24 h

concentration at 24 h reported for this molecule CC(=O)OCC1=C(C(=O)O)N2C(=O)[C@@H](NC(=O)CSc3ccncc3)[C@H]2SC1 [Free Cephapirin, cephapirin sodium] : < 500 ng/g

----------
experiment: in vivo; conditions: mouse, iv, 924 mg/kg
Property Measured: concentration at 1 h (ng/g)
Give the number; ng/g is assumed, so skip it.

concentration at 1 h reported for this molecule CC(=O)Nc1c(I)c(NC(C)=O)c(I)c(C(=O)O)c1I [free diatrizoate, diatrizoate] : 800000

----------
assay: Tissue distribution of cephapirin activity after intravenous administration (agar well diffusion bioassay); format: in vivo, mice; conditions: mouse; LIVER; time 3; 200 mg/kg intravenous; mean ± S.E.M.
Property Measured: concentration at 3 h

concentration at 3 h reported for this compound CC(=O)OCC1=C(C(=O)O)N2C(=O)[C@@H](NC(=O)CSc3ccncc3)[C@H]2SC1 [Free Cephapirin, cephapirin sodium] : < 500 ng/g

----------
assay: Tissue distribution of cephapirin activity after intravenous administration (agar well diffusion bioassay); assay type: in vivo, mice; details: mouse; LIVER; time 10; 200 mg/kg intravenous; mean ± S.E.M.
Property Measured: concentration at 10 h

concentration at 10 h reported for this molecule CC(=O)OCC1=C(C(=O)O)N2C(=O)[C@@H](NC(=O)CSc3ccncc3)[C@H]2SC1 [Free Cephapirin, cephapirin sodium] : < 500 ng/g

----------
test: Tissue distribution of cephapirin activity after intravenous administration (agar well diffusion bioassay); assay type: in vivo, mice; conditions: mouse; LIVER; time 7; 200 mg/kg intravenous; mean ± S.E.M.
Property Measured: concentration at 7 h

concentration at 7 h reported for this compound CC(=O)OCC1=C(C(=O)O)N2C(=O)[C@@H](NC(=O)CSc3ccncc3)[C@H]2SC1 [Free Cephapirin, cephapirin sodium] : < 500 ng/g

----------
assay: Tissue distribution of cephapirin activity after intravenous administration (agar well diffusion bioassay); assay type: in vivo, mice; details: mouse; KIDNEY; time 24; 200 mg/kg intravenous; mean ± S.E.M.
Property Measured: concentration at 24 h

concentration at 24 h reported for this compound CC(=O)OCC1=C(C(=O)O)N2C(=O)[C@@H](NC(=O)CSc3ccncc3)[C@H]2SC1 [Free Cephapirin, cephapirin sodium] : < 500 ng/g

----------
experiment: Tissue distribution of cephapirin activity after intravenous administration (agar well diffusion bioassay); assay type: in vivo, mice; details: mouse; SPLEEN; time 1; 200 mg/kg intravenous; mean ± S.E.M.
Property Measured: concentration at 1 h

concentration at 1 h reported for this compound CC(=O)OCC1=C(C(=O)O)N2C(=O)[C@@H](NC(=O)CSc3ccncc3)[C@H]2SC1 [Free Cephapirin, cephapirin sodium] : < 500 ng/g

----------
experiment: Tissue distribution of cephapirin activity after intravenous administration (agar well diffusion bioassay); type: in vivo, mice; conditions: mouse; SPLEEN; time 3; 200 mg/kg intravenous; mean ± S.E.M.
Property Measured: concentration at 3 h

concentration at 3 h reported for this compound CC(=O)OCC1=C(C(=O)O)N2C(=O)[C@@H](NC(=O)CSc3ccncc3)[C@H]2SC1 [Free Cephapirin, cephapirin sodium] : < 500 ng/g

----------
experiment: Tissue distribution of cephapirin activity after intravenous administration (agar well diffusion bioassay); assay type: in vivo, mice; settings: mouse; LIVER; time 24; 200 mg/kg intravenous; mean ± S.E.M.
Property Measured: concentration at 24 h

concentration at 24 h reported for this compound CC(=O)OCC1=C(C(=O)O)N2C(=O)[C@@H](NC(=O)CSc3ccncc3)[C@H]2SC1 [Free Cephapirin, cephapirin sodium] : < 500 ng/g

----------
experiment: in vivo; conditions: mouse, iv, 924 mg/kg
Property Measured: concentration at 0.5 h (ng/g)
Give the number; ng/g is assumed, so skip it.

concentration at 0.5 h reported for this compound CC(=O)Nc1c(I)c(NC(C)=O)c(I)c(C(=O)O)c1I [free diatrizoate, diatrizoate] : 2.8e+06
